# TARGET OR TEST SYSTEM: hCA IX (Homo sapiens, UniProt Q16790)
# Construct: gene CA9; recombinant, obtained in-house
# PROTOCOL NOTES: stopped-flow CO2 hydrase assay
# Type: biochemical
EXPERIMENTAL READOUT: pKi
Answers are plain numbers, as −log10 of the molar value.

{"GIVEN SMILES": "C#CCOc1ccc2oc(=O)c(C(=O)c3ccccc3)cc2c1", "EXPERIMENTAL READOUT": "pKi", "READING": 6.50}

[ask] Using the record for "C#CCOc1cccc2cc(C(=O)c3ccccc3)c(=O)oc12" , report its pKi.
[reply] 6.16

Source listed as paper PMC7824903.
